- system_under_test: RIPK1 (recombinant GST-RIPK1 kinase domain, residues 1-327) (Homo sapiens (Human))
- test_summary: RIPK1-ADP-Glo Enzymatic Assay
- Type: biochemical
- assay_context: ADP-Glo; 25 nM GST-RIPK1, 300 μM ATP; assay lower limit ~25 nM; read-out: RIPK1 V0 Ec50
Counter-ions that a name gives are not always drawn.
Attribute: pEC50
Conceptually, pEC50 converts a concentration in mol/L into minus its log10.

| compound | pEC50 |
| --- | --- |
| CCOC(=O)c1ccc(N2CCC3(CC2)O[C@@H]2CC[C@@H](c4ccccc4)N2C3=O)nc1 [Example 4.200] | 7.28 |
| O=C(c1nnn2ccccc12)N1CCC2(CC1)O[C@@H]1CC[C@@H](c3cc(F)cc(F)c3)N1C2=O [Example 5.66] | 7.09 |
| N#CC1(NC(=O)c2nc(N3CCC4(CC3)O[C@@H]3CC[C@@H](c5cc(F)cc(F)c5)N3C4=O)ncc2F)CCC1 [Example 7.13] | 6.72 |
| CCOc1cnc(N2CCC3(CC2)O[C@@H]2CC[C@@H](c4ccccc4)N2C3=O)n2ncnc12 [Example 19.7] | 7.60 |
| N#Cc1cccnc1C(=O)N1CCC2(CC1)O[C@@H]1CC[C@@H](c3cc(F)cc(F)c3)N1C2=O [Example 6.103] | 6.03 |
| O=C1N2[C@@H](CC[C@H]2c2cc(F)cc(F)c2)OC12CCN(c1cncc3ncnn13)CC2 [Example 13.4, TFA salt] | 7.25 |

Let us examine a further case.
Reported pEC50, compound Cc1nccnc1[C@@H]1CC[C@H]2OC3(CCN(c4ccnc5c(F)cnn45)CC3)C(=O)N21 [Example 4.144] : ____
7.38

* * *

- system_under_test: RIPK1 (recombinant GST-RIPK1 kinase domain, residues 1-327) (Homo sapiens (Human), UniProt Q13546)
- Sequence (Q13546 1-327): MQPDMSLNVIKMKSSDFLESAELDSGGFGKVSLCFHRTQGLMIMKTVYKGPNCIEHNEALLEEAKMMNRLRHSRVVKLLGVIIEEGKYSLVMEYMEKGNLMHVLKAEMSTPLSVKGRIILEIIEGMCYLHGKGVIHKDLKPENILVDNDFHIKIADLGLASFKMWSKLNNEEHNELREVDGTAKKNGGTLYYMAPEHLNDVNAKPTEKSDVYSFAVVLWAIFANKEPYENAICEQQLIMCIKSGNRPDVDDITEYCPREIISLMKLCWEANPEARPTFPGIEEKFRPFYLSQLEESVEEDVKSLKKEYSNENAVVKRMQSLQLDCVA
- test_summary: RIPK1-ADP-Glo Enzymatic Assay
- Assay type: biochemical
- assay_context: ADP-Glo; 25 nM GST-RIPK1, 300 μM ATP; assay lower limit ~25 nM; read-out: RIPK1 V0 Ec50
Attribute: EC50
Unit nM implied. Number only.

Please review the following examples before continuing.
| compound_structure | EC50 [nM] |
| --- | --- |
| O=C1N2[C@@H](CC[C@H]2c2ccccc2)OC12CCN(c1ncc(-c3cscn3)cn1)CC2 | 40.3 |
| N#Cc1ccc(N2CCC3(CC2)O[C@@H]2CC[C@@H](c4cc(F)cc(F)c4)N2C3=O)nn1 | 240 |

Let us examine a further case.
Reported EC50, compound "Cc1cc(C)cc(C(=O)N2CCC3(CC2)O[C@@H]2CC[C@@H](c4ccccc4)N2C3=O)c1" : ____
118

* * *

- system_under_test: RIPK1 (recombinant GST-RIPK1 kinase domain, residues 1-327) (Homo sapiens (Human), UniProt Q13546)
- test_summary: RIPK1-ADP-Glo Enzymatic Assay
- Format: biochemical
- assay_context: ADP-Glo; 25 nM GST-RIPK1, 300 μM ATP; assay lower limit ~25 nM; read-out: RIPK1 V0 Ec50
pEC50: −log10 of the molar value.
Classify by measured pEC50: True if it is equal to or exceeds 7, False if it is smaller.

Example entries and their recorded answers appear below.
| molecule | discrete_label |
| --- | --- |
| Cc1nc(N2CCC3(CC2)O[C@@H]2CC[C@@H](c4ccccc4)N2C3=O)ncc1-c1ncnn1C | False |
| O=C1N2[C@@H](CC[C@H]2c2ccccc2)OC12CCN(c1ccc(=O)n(CC3CC3)n1)CC2 | False |
| O=C1N2[C@H](OC13CCN(c1ccnc4c(F)cnn14)CC3)[C@@H](F)C[C@H]2c1ccccc1 | True |
| COC(=O)c1cnc(N2CCC3(CC2)O[C@@H]2CC[C@@H](c4ccccc4)N2C3=O)c(OC)c1 | True |
| N#Cc1ccccc1C(=O)N1CCC2(CC1)O[C@@H]1CC[C@@H](c3ccccc3)N1C2=O | False |
| O=C(c1ccnc(C(F)(F)F)c1F)N1CCC2(CC1)O[C@@H]1CC[C@@H](c3cc(F)cc(F)c3)N1C2=O | True |

Please check the record "Cc1ccn(-c2cccc(N3CCC4(CC3)O[C@@H]3CC[C@@H](c5ccccc5)N3C4=O)n2)n1" and state if its pEC50 is at or above 7.
True

Thanks! And "O=C1N2[C@@H](CC[C@H]2c2ccccc2)OC12CCN(c1ccc(-c3nc4ccccc4[nH]3)cn1)CC2" ?
True

Thanks! And "COc1cc(N2CCC3(CC2)O[C@@H]2CC[C@@H](c4cc(F)cc(F)c4)N2C3=O)ncn1" ?
True

Thanks! And CC1CN(c2ncnc3ccnn23)CCC12O[C@@H]1CC[C@@H](c3cc(F)cc(F)c3)N1C2=O (some centres unmarked) [Example 4.264] ?
True

Thanks! And CC1CN(c2cc(C#N)ncn2)CCC12O[C@@H]1CC[C@@H](c3ccccc3)N1C2=O (some centres unmarked) [Example 4.236] ?
True

Thanks! And "O=C1N2[C@@H](CC[C@H]2c2ccccc2)OC12CCN(c1ncnc3ccsc13)CC2" ?
True

Thanks! And CC1CC2(CCN1C(=O)c1ccccc1)O[C@@H]1CC[C@@H](c3cc(F)cc(F)c3)N1C2=O (some centres unmarked) [Example 6.105] ?
False

* * *

- system_under_test: RIPK1 (recombinant GST-RIPK1 kinase domain, residues 1-327) (Homo sapiens (Human))
- test_summary: RIPK1-ADP-Glo Enzymatic Assay
- Format: biochemical
- assay_context: ADP-Glo; 25 nM GST-RIPK1, 300 μM ATP; assay lower limit ~25 nM; read-out: RIPK1 V0 Ec50
pEC50: −log10 of the molar value. Counter-ions that a name gives are not always drawn.
Classify by measured pEC50: met if it is equal to or exceeds 7, not met if it is smaller.

Example entries and their recorded answers appear below.
| compound | discrete_label |
| --- | --- |
| O=C(c1cccc(F)c1)N1CCC2(CC1)O[C@@H]1CC[C@@H](c3cccc(F)c3)N1C2=O [Example 6.116] | met |
| C[C@@]12CC[C@@H](c3ccccc3)N1C(=O)C1(CCN(C(=O)c3ccccc3)CC1)O2 [Example 6.98] | not met |
| O=C1N2[C@@H](CC[C@H]2c2cc(F)cc(F)c2)OC12CCN(c1ncnn3cccc13)CC2 [Example 13.11, TFA salt] | met |
| O=C(c1cocn1)N1CCC2(CC1)O[C@@H]1CC[C@@H](c3cc(F)cc(F)c3)N1C2=O [Example 5.30] | met |
| CC1CN(C(=O)c2ccccc2)CCC12O[C@@H]1CC[C@@H](c3cc(F)cc(F)c3)N1C2=O (single isomer, unassigned) [Example 2.6] | met |

Please check the record O=C(c1noc2c1CCCC2)N1CCC2(CC1)O[C@@H]1CC[C@@H](c3cc(F)cc(F)c3)N1C2=O [Example 6.17] and state if its pEC50 is at or above 7.
not met

Thanks! And N#Cc1cnnc(N2CCC3(CC2)O[C@@H]2CC[C@@H](c4cc(F)cc(F)c4)N2C3=O)c1 [Example 4.19] ?
not met

Thanks! And O=C1N2[C@@H](CC[C@H]2c2ccccc2)OC12CCN(c1ccnc3ccnn13)CC2 [Example 4.28] ?
met

Thanks! And N#Cc1ccc(N2CC3(C2)O[C@@H]2CC[C@@H](c4ccccc4)N2C3=O)c2ccnn12 [Example 13.21, TFA salt] ?
met

Thanks! And C#Cc1cnc(N2CCC3(CC2)O[C@@H]2CC[C@@H](c4ccccc4)N2C3=O)n2ncnc12 [Example 21.23] ?
met

Thanks! And O=C1N2[C@@H](CC[C@H]2c2ccccc2F)OC12CCN(c1cc(Cl)ncn1)CC2 [Example 4.99] ?
met

Thanks! And O=C1N2C(CCC2c2c(F)cccc2F)OC12CCN(c1ccnc3ccnn13)CC2 (stereo not shown) [Example 20.8] ?
met

Thanks! And N#Cc1cc([C@@H]2CC[C@H]3OC4(CCN(c5ccnc6c(F)cnn56)CC4)C(=O)N32)ccc1F [Example 20.6] ?
met

Thanks! And C#Cc1ccc(C(=O)N2CCC3(CC2)O[C@@H]2CC[C@@H](c4cc(F)cc(F)c4)N2C3=O)cc1 [Example 5.27] ?
not met

Thanks! And COc1cccc(F)c1C(=O)N1CCC2(CC1)O[C@@H]1CC[C@@H](c3cc(F)cc(F)c3)N1C2=O [Example 6.72] ?
met

Thanks! And O=C(c1ccccc1Cl)N1CCC2(CC1)O[C@@H]1CC[C@@H](c3cc(F)cc(F)c3)N1C2=O [Example 6.78] ?
met

Thanks! And Cc1cc(N2CCC3(CC2)O[C@@H]2CC[C@@H](c4ccccc4)N2C3=O)ncc1[N+](=O)[O-] [Example 4.207] ?
met

Thanks! And COc1cccc(C(=O)N2CCC3(CC2)O[C@@H]2CC[C@@H](c4cc(F)cc(F)c4)N2C3=O)c1 [Example 6.10] ?
met

Thanks! And O=C1N2[C@@H](CC[C@H]2c2ccccc2)OC12CCN(c1cccc3ncnn13)CC2F (single isomer, unassigned) [Example 13.18, TFA salt] ?
met

Thanks! And O=C(c1nc(N2CCC3(CC2)O[C@@H]2CC[C@@H](c4cc(F)cc(F)c4)N2C3=O)ncc1F)N1CC(C(F)F)C1 [Example 7.8] ?
met

Thanks! And O=C(c1cnon1)N1CCC2(CC1)O[C@@H]1CC[C@@H](c3cc(F)cc(F)c3)N1C2=O [Example 5.46] ?
not met

Thanks! And N#Cc1ccc(N2CCC3(CC2)O[C@@H]2CC[C@@H](c4cc(F)cc(F)c4)N2C3=O)c(F)c1 [Example 4.24] ?
met

Thanks! And N#Cc1ccccc1CN1CCC2(CC1)O[C@@H]1CC[C@@H](c3cc(F)cc(F)c3)N1C2=O [Example 22.3] ?
not met

Thanks! And COCCN1Cc2nc(N3CCC4(CC3)O[C@@H]3CC[C@@H](c5ccccc5)N3C4=O)ccc2C1=O [Example 4.191] ?
met
